- Tested on: U-251
- TEST METHOD NOTES: NCI tumour cell line growth inhibition, 48 h
Activity calls are given as the source filed them. Rule as the data show it: active = GI50 up to about 1.1 µM and inactive = higher.
// one of T (active), F (inactive), no free text

Below are worked cases with known answers.
MOLECULE | CLASS
O=c1c2cc(Br)ccc2oc2ccc(Br)cc12 | F
O=C1NC2(CCCCC2)N=C2C(Cl)CCCC12Cl (stereo not given) | F
CCOC(=O)/C=C/c1c(C)[nH]c(=O)[nH]c1=O | F
CCC(=O)C(C)C(=O)C(=O)C(=O)OC (stereo not given) | F

Call for entry CN1CCN(c2ccc3[nH]c(-c4ccc5[nH]c(-c6ccc(N(C)CCCl)cc6)nc5c4)nc3c2)CC1 :
T

Item: CC(=O)N(C(=O)CC(=O)N/N=C\c1ccc(Br)c(N(CCC#N)CCC#N)c1)c1ccc(Cl)cc1
F

Item: Cc1ccc(NC(=O)C(=O)C2C(=O)C3=C(CC2(C)C)NC2C=CC=CC2S3)c(C)c1 (stereo not given)
F

Item: O=C(COc1ccc(Cl)c(Cl)c1)N(Cc1ccccc1)Cc1ccc[n+](Cc2ccc(Cl)cc2S(=O)(=O)F)c1
F

Item: Cc1ccnc(NC(NC(=O)c2ccccc2)(C(F)(F)F)C(F)(F)F)c1
F

Item: C/C(=C\c1csc(C)n1)[C@@H]1C[C@@H]2O[C@@H]2CCC[C@H](C)[C@H](O)[C@@H](C)C(=O)C(C)(C)[C@@H](O)CC(=O)O1.C/C(=C\c1csc(C)n1)[C@@H]1C[C@@H]2O[C@]2(C)CCC[C@H](C)[C@H](O)[C@@H](C)C(=O)C(C)(C)[C@@H](O)CC(=O)O1
T

====

- Tested on: NCI/ADR-RES
- TEST METHOD NOTES: NCI tumour cell line growth inhibition, 48 h
Active and inactive are the calls of the source. Cut-off read from the data, not from the text of the source: active = GI50 up to about 1.1 µM and inactive = higher.
// one of True = active, False = inactive, no free text

Call for entry O=C(c1cc2c(c3ccccc13)NCCN=C2C(F)(F)F)C(F)(F)F :
False

Item: CC(C)(C)OC(=O)c1ccc(NCC2=CC(=O)C=CC2=O)cc1
False

Item: CC(=O)OC(=C(C#N)C#N)c1nccnc1C(=O)O
False

Item: CCC(C(=O)c1cccs1)C(O)(C(F)(F)F)C(F)(F)F (stereo not drawn)
False

Item: COc1cccc2c1cc([N+](=O)[O-])c1c(C(=O)O)cc3c(c12)OCO3 [ARISTOLOCHIC ACID]
False

Item: CN(CCCNc1ccc2ncn3c4ccccc4c(=O)c1c23)CCCN1C(=O)c2cccc3cc([N+](=O)[O-])cc(c23)C1=O
True

Item: Oc1ccc2ccccc2c1/N=N/c1cccc2ccccc12
False

Item: COC1CC(C)(NC(C)=O)C2OC(c3ccccc3)OCC2O1 (stereo not drawn)
False

Item: COc1ccccc1-c1cc(=O)c2ccc(OC)c(OC)c2o1
False

Item: COc1cc(C2c3cc4c(cc3OC(O)C2C)OCO4)cc(OC)c1O (stereo not drawn)
False

Item: C=C1C(=O)OC2CC(C)C3(O)CCC(=O)C3(C)CC12 (stereo not drawn)
False

Item: CC1(C)N=C(N)N=C(N)N1c1ccc(OCC(=O)Nc2cccc(S(=O)(=O)F)c2)c(Cl)c1
False

Item: O=C1CSCC(=O)Nc2ccccc2N1
False

====

- Test system: SF-268
- TEST METHOD NOTES: NCI tumour cell line growth inhibition, 48 h
The source made the active and inactive calls. No stated cut-off is given here; in the data, active = GI50 up to about 1.1 µM and inactive = higher. Residues, ends and D or L forms follow the SMILES beside them. *: point of attachment. Boc = CC(C)(C)OC(=O)*; OBn = c1ccc(CO*)cc1
Record form. Attribute: GI50. Fill in for each entry.

COMPOUND | TARGET SYSTEM | GI50
O=C(Cl)C1=C(c2ccccc2)C1c1ccccc1 (configuration not stated) | SF-268 | > 100 µM (inactive)

// batch mode: one GI50 value per listed entry
1. CCOP(=O)(C/C(O)=C1\C(=O)C(CCCNC(=O)OC(C)(C)C)N(Cc2ccc(OC)c(OC)c2)C1=O)OCC (configuration not stated)
2. Clc1ccc(/C=C/c2nc(Cl)c(-c3ccc(Cl)cc3)c(Cl)n2)cc1
3. COC(=O)N1N=C(c2ccccc2)C1c1ccccc1 (configuration not stated)
4. COC1(CCO)CC=CCC1(CCO)OC (configuration not stated)
5. CC(C)C(NC(=O)CNC(=O)C1CCCN1C(=O)C(NC(=O)OC(C)(C)C)C(C)C)C(=O)NCC(=O)OCc1ccccc1 (configuration not stated) (Boc-VPGVG-OBn; configuration not given here)

> 100 µM (inactive)
> 100 µM (inactive)
62.7 µM (inactive)
> 100 µM (inactive)
> 100 µM (inactive)

====

- Tested on: MDA-MB-231
- TEST METHOD NOTES: NCI tumour cell line growth inhibition, 48 h
Calls of active or inactive are those of the source. No stated cut-off is given here; in the data, active = GI50 up to about 1.1 µM and inactive = higher.
// one of active, inactive, no free text

Below are worked cases with known answers.
MOLECULE | TARGET SYSTEM | CLASS
COc1ccc(C(=O)Nc2ccc3oc(-c4ccccc4)nc3c2)cc1 | MDA-MB-231 | inactive
O[C@@]12Cc3c([nH]c4ccccc34)[C@@H]3Oc4cccc5c4[C@@]31CCN(CC1CC1)[C@@H]2C5 | MDA-MB-231 | inactive
CN(C)CCN1Nc2c3ccccc3nc3c(C(=O)NCCCN(C)CCCNC(=O)c4ccc5c6c(c7ccccc7nc46)NN5CCN(C)C)ccc1c23 | MDA-MB-231 | active
COC(=O)c1cc2c(cc1CC1Cc3cc4c(cc3C1=O)CCC4)CCC2 (stereo not given) | MDA-MB-231 | inactive
Cc1cc(Nc2ccc(NS(C)(=O)=O)cc2)c2c(ccc3[nH]ccc32)n1 | MDA-MB-231 | inactive
CC1=CC(C)C(O)C(C)/C=C\C(O)C/C=C(/C)C(=O)CC(O)C(C)\C=C/C=C\C=C/C(=O)NC2=C(O)C(=O)c3c(cc(C)c(O)c3C1=O)C2=O (stereo not given) | MDA-MB-231 | inactive

Call for entry CC1(C)COP(=S)(c2ccccn2)O[C@@H]1c1ccccc1 (stereo not given in full) :
inactive

Item: CC(C)(OCc1ccccc1)c1ccccc1P(c1ccccc1)c1ccccc1
inactive

Item: CN(C)CCn1c(=O)c2ccc(NCCNCCO)c3c(=O)c4cc(O)ccc4n(c1=O)c23
active

Item: CC(C)(C)OC(=O)c1ccc(NCC2=CC(=O)C=CC2=O)cc1
inactive

====

- System: SW-620
- TEST METHOD NOTES: NCI tumour cell line growth inhibition, 48 h
Activity calls are given as the source filed them. Rule as the data show it: active = GI50 up to about 1.1 µM and inactive = higher.
// one of 1 (active), 0 (inactive), no free text

COMPOUND | CLASS
O=C(O)C1(C(=O)O)CCN(S(=O)(=O)c2ccccc2)CC1 | 0
CNS(=O)(=O)NN(C)S(=O)(=O)c1ccc(F)cc1 | 0
O=[N+]([O-])c1cc(/N=N/c2c(O)ccc3cc(S(=O)(=O)O)ccc23)c(O)c([N+](=O)[O-])c1 | 0

Now, please, on to the next compound.
Call for entry COc1c(Br)cc(/C=C(\C#N)c2cccnc2)cc1Br :
0

====

- Test system: MOLT-4
- TEST METHOD NOTES: NCI tumour cell line growth inhibition, 48 h
Active and inactive are the calls of the source. Cut-off read from the data, not from the text of the source: active = GI50 up to about 1.1 µM and inactive = higher.
// one of yes (active), no (inactive), no free text

MOLECULE | CLASS
N#CC(C#N)=C(N)/C(C#N)=C/c1ccc2ccccc2n1 | no
CC(=O)Nc1ccc(C(=O)N2N=C(C)/C(=C\c3c(O)ccc4ccccc34)C2=O)cc1 | no
Cc1cc(Nc2ccc(NS(C)(=O)=O)cc2)c2c(ccc3[nH]ccc32)n1 | no
O=C(O)c1cccc(NC(C(=O)c2ccccc2)c2ccccc2)c1 (configuration not stated) | no
COC1=CC(=O)c2c(O)c3c(c(O)c2C1=O)CC(C)(O)OC3 (configuration not stated) | no
CCCOc1ccc(/C(Cl)=C(\C=O)c2ccc(OC)c(OC)c2)cc1OCCC | no
Cc1ccc(NC(=O)COc2ccc(Cl)cc2)cc1Cl | no
CC1CCCOc2ccc(cc2)/C=N\c2ccc(cc2)CCc2ccc(cc2)/N=C\c2ccc(cc2)OCCC1 | no
CC1=NC=C(O)c2ccccc2O1 | no
CC(C)(C)c1cc(OCc2nnc(S)n2N)c(Cl)cc1OCc1nnc(S)n1N | no

Call for entry CN1c2ccccc2N(C(=O)c2ccc(Cl)cc2)C(CC(=O)O)c2cccn21 (configuration not stated) :
no

Item: CN(C)CCn1c(=O)c2ccc(NCCNCCO)c3c(=O)c4cc(O)ccc4n(c1=O)c23
yes

====

- Test system: HOP-92
- TEST METHOD NOTES: NCI tumour cell line growth inhibition, 48 h
The source made the active and inactive calls. Cut-off read from the data, not from the text of the source: active = GI50 up to about 1.1 µM and inactive = higher.
PROPERTY NAME: GI50

Previously resolved entries follow.
MOLECULE | RESULT
COC1=CC(=O)c2c(O)c3c(c(O)c2C1=O)CC(C)(O)OC3 (stereo unspecified) [FUSARUBIN] | 2.88 µM (inactive)
C=C1C(=O)OC2CC(C)C3(O)CCC(=O)C3(C)CC12 (stereo unspecified) | 57.1 µM (inactive)
O=C1CCCC1C(O)(C(F)(F)F)C(F)(F)F (stereo unspecified) | > 100 µM (inactive)
CCCCCCCCCCCCCCCCP(=O)(O)OP(=O)(O)OCC1OC(n2cnc3c(N)ncnc32)C(O)C1O (stereo unspecified) | 21.4 µM (inactive)
Cc1ccc(-n2c(C)n[nH]c2=O)cc1 | > 100 µM (inactive)

// batch mode: one GI50 value per listed entry
1. CCCOc1ccc(/C(Cl)=C(\C=O)c2ccc(OC)c(OC)c2)cc1OCCC
2. CCN(CC)C(=S)N/N=C(/C)c1cccc(/C(C)=N\NC(=S)N(CC)CC)n1
3. C/C(=C\COP(=O)(O)OP(=O)(O)O)CC/C=C(\C)CNc1ccc([N+](=O)[O-])cc1
4. CCOC1(OCC)C2C=CC1C(COS(=O)(=O)c1ccc(C)cc1)C2COS(=O)(=O)c1ccc(C)cc1 (stereo unspecified)
5. COc1cc(C2c3cc4c(cc3OC(O)C2C)OCO4)cc(OC)c1O (stereo unspecified)
6. CC1(C)OC2C(=O)OC(COCc3ccccc3)C2O1 (stereo unspecified)

["18 µM (inactive)", "1.46 µM (inactive)", "> 100 µM (inactive)", "12.8 µM (inactive)", "15.9 µM (inactive)", "> 100 µM (inactive)"]
